Each entry below lists one item and its recorded IC50 value.
Target: Recombinant human renin (Homo sapiens)
Sequence (P00797 67-406): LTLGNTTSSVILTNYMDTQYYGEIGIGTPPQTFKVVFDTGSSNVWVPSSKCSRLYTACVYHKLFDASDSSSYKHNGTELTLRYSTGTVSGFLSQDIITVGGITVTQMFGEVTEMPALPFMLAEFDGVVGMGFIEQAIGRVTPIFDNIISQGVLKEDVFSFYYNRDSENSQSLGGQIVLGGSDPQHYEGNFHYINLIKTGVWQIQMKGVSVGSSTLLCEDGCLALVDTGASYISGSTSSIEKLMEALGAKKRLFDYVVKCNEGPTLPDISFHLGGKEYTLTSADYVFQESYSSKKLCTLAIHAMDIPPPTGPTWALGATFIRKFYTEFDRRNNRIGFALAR
Assay: Inhibitory activity against human renin (fluorogenic peptide substrate)
Format: biochemical
Details: 50% inhibitory concentration (IC50) against human renin, 37° C. for 1 hour
# include the unit after the value

For orientation, consider the following solved cases.
COC(=O)NCCCc1cc([C@@H](C)N(C(=O)[C@H]2CNC[C@@H](CF)O2)C2CC2)nn1-c1ccccc1 = 1.5 nM
COC(=O)NCCCn1nc([C@@H](C)N(C(=O)[C@H]2CNCCO2)C2CC2)c(F)c1-c1ccccc1 = 0.2 nM
COC(=O)NCCCc1cc([C@H](C)N(C(=O)[C@H]2CNC[C@@H](CO)O2)C2CC2)cc(OC)n1 = 0.5 nM
COC(=O)NCCCn1cc([C@H](C)N(C(=O)[C@H]2CNC[C@@H](C)O2)C2CC2)nc1C1CCCCC1 = 0.3 nM
COC(=O)NCCCc1cc([C@@H](C)N(C(=O)[C@H]2CNCCO2)C2CC2)cc2ncccc12 = 0.8 nM

For reference, reported IC50 for CCc1cn(CCCOC)c2cc([C@@H](C)N(C(=O)[C@H]3CNCCO3)C3CC3)nc(C#N)c12 stands at 2.6 nM

For reference, reported IC50 for COC(=O)NCCCn1cc([C@@H](C)N(C(=O)[C@H]2CNC[C@@H](C)O2)C2CC2)nc1-c1ccccc1 [Example 230] stands at 0.5 nM

For reference, reported IC50 for COC(=O)NCCCn1cc([C@@H](C)N(C(=O)[C@H]2CNCCO2)C2CC2)nc1C(C)C stands at 0.7 nM

For reference, reported IC50 for COC(=O)NCCCc1sc([C@H](C)N(C(=O)[C@H]2CNCCO2)C2CC2)cc1Br stands at 2.7 nM

For reference, reported IC50 for CCc1c([C@@H](C)N(C(=O)[C@H]2CNCCO2)C2CC2)nn(CCCNC(=O)OC)c1-c1ccccn1 stands at 1.5 nM

For reference, reported IC50 for COC(=O)NCCCc1cc([C@@H](C)N(C(=O)[C@H]2CN[C@@H](C)CO2)C2CC2)nn1-c1ccccc1 stands at 0.8 nM

----------
Molecular target: Recombinant human renin (Homo sapiens, UniProt P00797)
Sequence (P00797 67-406): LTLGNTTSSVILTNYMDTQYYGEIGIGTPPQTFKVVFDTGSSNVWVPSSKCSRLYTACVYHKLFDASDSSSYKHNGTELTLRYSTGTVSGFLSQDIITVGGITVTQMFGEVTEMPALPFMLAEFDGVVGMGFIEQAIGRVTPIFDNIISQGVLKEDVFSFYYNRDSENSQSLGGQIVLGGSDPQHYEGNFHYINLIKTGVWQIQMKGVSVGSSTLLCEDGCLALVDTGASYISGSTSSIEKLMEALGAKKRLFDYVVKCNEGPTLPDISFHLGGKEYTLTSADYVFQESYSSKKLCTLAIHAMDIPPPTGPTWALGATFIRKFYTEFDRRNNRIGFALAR
Assay: Inhibitory activity against human renin (fluorogenic peptide substrate)
Type: biochemical
Conditions: 50% inhibitory concentration (IC50) against human renin, 37° C. for 1 hour
endpoint-label: IC50 (nM)
Give the value, in units of nM, as a plain number.

For reference, reported IC50 for COC(=O)NCCCc1cc([C@@H](C)N(C(=O)[C@H]2CNCCO2)C2CC2)nn1-c1ccccc1 stands at 0.3

For reference, reported IC50 for COCCOc1cc([C@@H](C)N(C(=O)[C@H]2CNC[C@@H](C)O2)C2CC2)cc(CCCNC(=O)OC)n1 stands at 0.7

For reference, reported IC50 for COC(=O)NCCCn1cc([C@H](C)N(C(=O)[C@H]2CNC[C@@H](COCc3ccccc3)O2)C2CC2)nc1C1CCOCC1 stands at 0.4

----------
Target: Recombinant human renin (Homo sapiens, UniProt P00797)
Sequence (P00797 67-406): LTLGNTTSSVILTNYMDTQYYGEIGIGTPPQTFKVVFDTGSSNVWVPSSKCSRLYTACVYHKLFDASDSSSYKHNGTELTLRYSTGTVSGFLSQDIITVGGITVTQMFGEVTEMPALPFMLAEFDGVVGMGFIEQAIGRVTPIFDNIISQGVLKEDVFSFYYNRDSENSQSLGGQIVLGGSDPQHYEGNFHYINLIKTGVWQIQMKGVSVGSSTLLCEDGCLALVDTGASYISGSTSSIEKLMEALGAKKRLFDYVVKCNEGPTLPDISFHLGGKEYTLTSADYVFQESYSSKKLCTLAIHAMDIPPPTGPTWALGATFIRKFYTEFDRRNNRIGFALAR
Test: Inhibitory activity against human renin (fluorogenic peptide substrate)
Assay type: biochemical
Conditions: 50% inhibitory concentration (IC50) against human renin, 37° C. for 1 hour
endpoint-label: IC50 (nM)
Give the value, in units of nM, as a plain number.

For orientation, consider the following solved cases.
COCCCc1cc([C@@H](C)N(C(=O)[C@H]2CNC[C@@H](C)O2)C2CC2)cc(CCCNC(=O)OC)n1 [Example 373] = 0.8
Cc1nc([C@@H](C)N(C(=O)[C@H]2CNCCO2)C2CC2)cc2c1ccn2Cc1ccccc1 [Example 148] = 5.1
COC(=O)NCCCc1nc([C@@H](C)N(C(=O)[C@H]2CNCCO2)C2CC2)sc1-c1ccccc1C(=O)OC [Example 414] = 2.8

For reference, reported IC50 for COC(=O)NC/C=C/c1cc([C@@H](C)N(C(=O)[C@H]2CN[C@@H](C)CO2)C2CC2)nn1-c1ccccc1 [Example 358] stands at 5.7

----------
Target: Recombinant human renin (Homo sapiens, UniProt P00797)
Sequence (P00797 67-406): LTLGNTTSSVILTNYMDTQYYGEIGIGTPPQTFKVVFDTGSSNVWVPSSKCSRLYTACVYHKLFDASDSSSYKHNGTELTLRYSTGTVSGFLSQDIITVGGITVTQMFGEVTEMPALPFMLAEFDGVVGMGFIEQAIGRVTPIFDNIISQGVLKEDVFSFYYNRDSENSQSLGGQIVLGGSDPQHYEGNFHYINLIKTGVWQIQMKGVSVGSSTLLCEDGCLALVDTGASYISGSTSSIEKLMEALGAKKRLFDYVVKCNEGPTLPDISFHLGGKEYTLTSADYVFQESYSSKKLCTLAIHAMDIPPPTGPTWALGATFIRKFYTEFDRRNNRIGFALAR
Experiment: Inhibitory activity against human renin (fluorogenic peptide substrate)
Format: biochemical
Conditions: 37° C. for 1 hour, read-out: IC50
endpoint-label: log10(IC50) (log10 of the value in nM)
Recorded IC50 (log10, nM)

For orientation, consider the following solved cases.
COCCCc1cn(C)c2ccc([C@@H](C)N(C(=O)[C@H]3CNCCO3)C3CC3)nc12 = 0.30
COC(=O)NCCCc1cc([C@@H](C)N(C(=O)[C@H]2CNCCO2)C2CC2)cc(C)n1 = 0.91
COC(=O)NCCCn1cc([C@@H](C)N(C(=O)[C@H]2CNCCO2)C2CC2)nc1C1CCCCC1 = -0.52
COC(=O)NCCc1cn(C)c2ccc([C@@H](C)N(C(=O)[C@H]3CNCCO3)C3CC3)cc12 = 0.04
COCCCc1nn(C)c2ccc([C@@H](C)N(C(=O)[C@H]3CNCCO3)C3CC3)cc12 [Example 15] = 0.41

For reference, reported log10(IC50) for CCC(=O)NCCCc1cc([C@@H](C)N(C(=O)[C@H]2CNCCO2)C2CC2)ccc1OC stands at 0.65

For reference, reported log10(IC50) for COC(=O)NCCCn1cc([C@@H](C)N(C(=O)[C@H]2CNCCO2)C2CC2)nc1OC(C)C stands at -0.15

For reference, reported log10(IC50) for COc1ccc([C@@H](C)N(C(=O)[C@H]2CNCCO2)C2CC2)cc1CCCNC(C)=O stands at 0.92

For reference, reported log10(IC50) for COC(=O)NCCn1nc(C)c2ccc([C@@H](C)N(C(=O)[C@H]3CNCCO3)C3CC3)cc21 stands at 0.86

For reference, reported log10(IC50) for COC(=O)NCCCn1nc([C@@H](C)N(C(=O)[C@H]2CNCCO2)C2CC2)c2ncc(C)cc21 stands at 0.00
